The entries below are paired with their reported pSTAT5 ratio YT CD25/YT, dilution factor 2, upper table.
Molecular target: T1, human high affinity trimeric IL-2 receptor (CD25/CD122/CD132) (human, UniProt P01589 22-272; P14784 27-551; P31785 23-369)
T1 sequence 1: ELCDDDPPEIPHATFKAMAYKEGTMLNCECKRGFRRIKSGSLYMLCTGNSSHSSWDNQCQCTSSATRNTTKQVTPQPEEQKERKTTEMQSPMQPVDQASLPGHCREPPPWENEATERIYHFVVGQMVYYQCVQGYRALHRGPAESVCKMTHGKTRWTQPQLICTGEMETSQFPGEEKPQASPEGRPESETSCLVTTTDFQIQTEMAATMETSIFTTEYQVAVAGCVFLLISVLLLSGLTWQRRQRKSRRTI
T1 sequence 2: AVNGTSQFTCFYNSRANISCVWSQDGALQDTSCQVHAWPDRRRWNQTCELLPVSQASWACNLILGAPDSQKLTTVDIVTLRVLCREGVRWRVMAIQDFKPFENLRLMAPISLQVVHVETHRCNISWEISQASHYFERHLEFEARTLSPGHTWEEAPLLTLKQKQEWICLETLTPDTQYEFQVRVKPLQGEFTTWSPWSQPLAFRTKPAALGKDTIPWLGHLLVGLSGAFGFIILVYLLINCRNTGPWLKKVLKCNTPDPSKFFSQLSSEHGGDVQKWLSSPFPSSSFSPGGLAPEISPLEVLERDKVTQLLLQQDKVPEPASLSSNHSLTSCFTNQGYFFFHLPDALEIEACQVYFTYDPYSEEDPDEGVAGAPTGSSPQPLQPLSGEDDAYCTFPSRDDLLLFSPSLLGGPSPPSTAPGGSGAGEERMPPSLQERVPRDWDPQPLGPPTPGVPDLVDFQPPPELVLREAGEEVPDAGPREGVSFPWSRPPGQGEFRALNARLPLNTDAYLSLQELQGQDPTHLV
T1 sequence 3: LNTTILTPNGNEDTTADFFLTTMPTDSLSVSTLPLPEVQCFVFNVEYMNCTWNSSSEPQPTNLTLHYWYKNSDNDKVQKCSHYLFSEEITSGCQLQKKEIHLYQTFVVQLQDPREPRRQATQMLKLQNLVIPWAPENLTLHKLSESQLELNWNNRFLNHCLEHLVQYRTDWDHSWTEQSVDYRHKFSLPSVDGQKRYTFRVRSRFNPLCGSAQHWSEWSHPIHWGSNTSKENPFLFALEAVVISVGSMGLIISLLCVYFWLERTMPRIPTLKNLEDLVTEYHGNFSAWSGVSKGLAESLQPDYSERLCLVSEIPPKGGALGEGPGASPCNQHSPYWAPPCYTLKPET
Assay: cell-based or functional assay
QUANTITY NAME: pSTAT5 ratio YT CD25/YT, dilution factor 2, upper table

>  <BINDER>
EEH (ligand) cytokine: APTSSSTKKTQLQLEHLELDLEMILNGINNYKNPKLTRMLTFKFYMPKKATELKHLQCLEEELKPLEEVLNLAQSKNFHLRPRDLISNINVIVLELKGSETTFMCEYADETATIVEFLNRWITFCHSIISTLT

>  <RESULT>
1.4

$$$$
>  <BINDER>
GEH (ligand) cytokine: APTSSSTKKTQLQLEHLGLDLEMILNGINNYKNPKLTRMLTFKFYMPKKATELKHLQCLEEELKPLEEVLNLAQSKNFHLRPRDLISNINVIVLELKGSETTFMCEYADETATIVEFLNRWITFCHSIISTLT

>  <RESULT>
1.5

$$$$
>  <BINDER>
hIL2 mutein REH (L18R, Q22E, Q126H) (ligand) APTSSSTKKTQLQLEHLRLDLEMILNGINNYKNPKLTRMLTFKFYMPKKATELKHLQCLEEELKPLEEVLNLAQSKNFHLRPRDLISNINVIVLELKGSETTFMCEYADETATIVEFLNRWITFCHSIISTLT

>  <RESULT>
0.9

$$$$
>  <BINDER>
hIL2 mutein REK (L18R, Q22E, Q126K) (ligand) APTSSSTKKTQLQLEHLRLDLEMILNGINNYKNPKLTRMLTFKFYMPKKATELKHLQCLEEELKPLEEVLNLAQSKNFHLRPRDLISNINVIVLELKGSETTFMCEYADETATIVEFLNRWITFCKSIISTLT

>  <RESULT>
1.1

$$$$
